Hello, the source for this data is patent US20100298376A1, in case you need it.

assayName: Z/E isomer stability in DMSO-d6 by NMR
Format: physicochemical
assayConditions: 6 hours from mixing
Below is a list of entries, each paired with its recorded percent of Z configuration after 6 hours value.
measuredProperty: percent of Z configuration after 6 hours

1. O=C1Nc2ccc([N+](=O)[O-])cc2/C1=C/c1cc(Br)c(O)c(Br)c1; 70%
2. O=C1Nc2ccccc2/C1=C\c1cc(Br)c(O)c(Br)c1; 50%
3. O=C1Nc2ccc(Br)cc2/C1=C\c1cc(Br)c(O)c(Br)c1; 80%
4. O=C1Nc2ccc(Cl)cc2/C1=C\c1cc(Br)c(O)c(Br)c1; 70%

###

Tested on: cerebellar granule neurons
assayConditions: LK medium; concentration not specified
measuredProperty: neuroprotective activity (in words)

1. COc1cc(/C=C2\C(=O)Nc3ccccc32)cc(OC)c1OC [Compound 3]; reduced activity
2. O=C1Nc2ccc(F)cc2/C1=C\c1cc(Br)c(O)c(Br)c1 [Compound 30]; not effective
3. CC(=O)Oc1c(Br)cc(/C=C2/C(=O)Nc3ccc(Cl)cc32)cc1Br [Compound 9]; reduced activity
4. COc1cc(/C=C2\C(=O)Nc3ccc(F)cc32)cc(OC)c1OC [Compound 32]; not effective
5. COc1cc(/C=C2\C(=O)Nc3ccc(Br)cc32)cc(OC)c1OC [Compound 18]; not effective
6. O=C1Nc2ccc(F)cc2/C1=C\c1ccccc1 [Compound 33, (E)-3-Benzylidene-5-fluoroindolin-2-one]; not effective

###

System: cerebellar granule neurons
assayConditions: Table 2; 1 μM in LK medium, 24 hours; percent of HK control
Classification field: enter true (1) for % neuronal survival Mean ± SD values not below 70%, false (0) for values below it.

1. O=C1Nc2ccc([N+](=O)[O-])cc2/C1=C/c1ccc[nH]1; true (1)
2. O=C1Nc2ccc([N+](=O)[O-])cc2/C1=C/c1cccs1; true (1)
3. O=C1Nc2ccccc2/C1=C/c1ccc[nH]1; false (0)
4. O=C1Nc2ccc(F)cc2/C1=C/c1cccs1; false (0)
5. O=C1Nc2ccc(F)cc2/C1=C/c1ccc[nH]1; false (0)

###

System: cerebellar granule neurons
assayConditions: LK medium; concentration not specified
Method: These compounds were analyzed for their neuroprotective activity in vitro. Granule neuron cultures were obtained from dissociated cerebella of 7-8 day old Wistar rats as known to one of ordinary skill in the art. […] This experimental model of neuronal apoptosis has been used widely used to understand the molecular mechanisms underlying neurodegeneration and to identify biological and chemical agents with neuroprotective efficacy. […] Viability was assessed 24 hours later. […]
measuredProperty: neuroprotective activity (in words)

1. COc1ccc(/C=C2/C(=O)Nc3ccc(Br)cc32)cc1; not effective
2. O=C1Nc2ccc(Br)cc2/C1=C\c1cc(Br)c(O)c(Br)c1; superior to Compound 1
3. CN(C)c1ccc(/C=C2/C(=O)Nc3ccc(Br)cc32)cc1; not effective
4. O=C1Nc2ccc([N+](=O)[O-])cc2/C1=C/c1cc(Br)c(O)c(Br)c1; superior to Compound 1
5. O=C1Nc2ccc(Cl)cc2/C1=C\c1ccccc1 [Compound 12, (E)-3-Benzylidene-5-chloroindolin-2-one]; not effective

###

Test system: cerebellar granule neurons
assayConditions: Table 2; 25 μM in LK medium, 24 hours; percent of HK control
Kindly note that classification relies on % neuronal survival Mean ± SD with these boundaries: lower segment (below 70%), middle segment (70% to below 90%), upper segment (90% or more)

1. O=C1Nc2ccc([N+](=O)[O-])cc2/C1=C/c1cccs1; lower segment
2. O=C1Nc2ccc(Cl)cc2/C1=C/c1ccc[nH]1; middle segment
3. O=C1Nc2ccccc2/C1=C/c1ccc[nH]1; lower segment
4. O=C1Nc2ccccc2/C1=C/c1cccs1; middle segment
5. O=C1Nc2ccc(F)cc2/C1=C/c1ccc[nH]1; upper segment
6. CC(=O)c1ccc2c(c1)/C(=C/c1ccc[nH]1)C(=O)N2; middle segment

###

Test system: cerebellar granule neurons
Protocol: These compounds were analyzed for their neuroprotective activity in vitro. Granule neuron cultures were obtained from dissociated cerebella of 7-8 day old Wistar rats as known to one of ordinary skill in the art. […] This experimental model of neuronal apoptosis has been used widely used to understand the molecular mechanisms underlying neurodegeneration and to identify biological and chemical agents with neuroprotective efficacy. […] Viability was assessed 24 hours later. […]
measuredProperty: neurotoxicity (in words)

1) O=C1Nc2ccc(Br)cc2/C1=C\c1cc(Br)c(O)c(Br)c1 [Compound 16]; not toxic
2) O=C1Nc2ccccc2/C1=C\c1c(Cl)cccc1Cl [Compound 5]; toxic
3) O=C1Nc2ccccc2/C1=C\c1cc(Br)c(O)c(Br)c1 [Compound 1]; not toxic
4) O=C1Nc2ccc(F)cc2/C1=C\c1cc(Br)c(O)c(Br)c1 [Compound 30]; toxic
5) O=C1Nc2ccc(Cl)cc2/C1=C\c1cc(Br)c(O)c(Br)c1 [Compound 7]; not toxic

###

System: cerebellar granule neurons
assayConditions: Table 1; 5 μM in LK medium, 24 hours; percent of HK control
Decision: % neuronal survival Mean ± SD beneath 60% gives 1; % neuronal survival Mean ± SD meeting or exceeding 60% gives -1.

1. O=C1Nc2ccc(Cl)cc2/C1=C/c1cc(Br)cc(Br)c1 [Compound 8]; -1
2. O=C1Nc2ccccc2/C1=C\c1cc(Br)c(O)c(Br)c1 [Compound 1]; -1
3. CN(C)c1ccc(/C=C2\C(=O)Nc3ccc([N+](=O)[O-])cc32)cc1 [Compound 29]; -1
4. O=C1Nc2ccc(Cl)cc2/C1=C\c1c(Cl)cccc1Cl [Compound 11]; -1
5. CN(C)c1ccc(/C=C2/C(=O)Nc3ccc(Br)cc32)cc1 [Compound 20]; 1
6. O=C1Nc2ccc(F)cc2/C1=C\c1cc(Br)cc(Br)c1 [Compound 31]; 1
7. COc1cc(/C=C2\C(=O)Nc3ccc(Cl)cc32)cc(OC)c1OC [Compound 10]; -1
8. O=C1Nc2ccc([N+](=O)[O-])cc2/C1=C\C=Cc1ccccc1[N+](=O)[O-] [Compound 27]; 1
9. Cc1ccc(/C=C2/C(=O)Nc3ccc(Cl)cc32)cc1 [Compound 13]; -1
10. COc1cc(/C=C2\C(=O)Nc3ccc([N+](=O)[O-])cc32)cc(OC)c1OC [Compound 23]; -1
11. O=C1Nc2ccc([N+](=O)[O-])cc2/C1=C/c1cc(Br)c(O)c(Br)c1 [Compound 21]; -1
12. O=C1Nc2ccccc2/C1=C\c1c(Cl)cccc1Cl [Compound 5]; 1
13. O=C1Nc2ccc([N+](=O)[O-])cc2/C1=C\c1c(Cl)cccc1Cl [Compound 24]; -1
14. O=C1Nc2ccc(F)cc2/C1=C\c1cc(Br)c(O)c(Br)c1 [Compound 30]; -1
15. O=C1Nc2ccccc2C1=CC=Cc1ccccc1 [Compound 4, 3-(3′-Phenylallylidene)indolin-2-one]; -1
16. O=C1Nc2ccccc2/C1=C/c1ccccc1[N+](=O)[O-] [Compound 6]; -1
17. CN(C)c1ccc(/C=C2/C(=O)Nc3ccc(Cl)cc32)cc1 [Compound 15]; 1
18. O=C1Nc2ccc(F)cc2/C1=C\c1ccccc1 [Compound 33, (E)-3-Benzylidene-5-fluoroindolin-2-one]; 1

###

Below is a list of entries, each paired with its recorded % neuronal survival Mean ± SD value.
Tested on: cerebellar granule neurons
assayConditions: Table 2; 1 μM in LK medium, 24 hours; percent of HK control
Method: These compounds were analyzed for their neuroprotective activity in vitro. Granule neuron cultures were obtained from dissociated cerebella of 7-8 day old Wistar rats as known to one of ordinary skill in the art. […] This experimental model of neuronal apoptosis has been used widely used to understand the molecular mechanisms underlying neurodegeneration and to identify biological and chemical agents with neuroprotective efficacy. […] Viability was assessed 24 hours later. […]
measuredProperty: % neuronal survival Mean ± SD (%)

1. O=C1Nc2ccccc2/C1=C/c1cccs1; 68.3
2. O=C1Nc2ccccc2/C1=C\c1ccco1; 70.4
3. O=C1Nc2ccc(Cl)cc2/C1=C/c1ccc[nH]1; 71.2
4. CC(=O)c1ccc2c(c1)/C(=C/c1ccc[nH]1)C(=O)N2; 69.5

###

Below is a list of entries, each paired with its recorded % neuronal survival Mean ± SD value.
Test system: cerebellar granule neurons
assayConditions: Table 2; 25 μM in LK medium, 24 hours; percent of HK control
measuredProperty: % neuronal survival Mean ± SD (%)

1. O=C1Nc2ccc(F)cc2/C1=C/c1cccs1; 68.7
2. O=C1Nc2ccccc2/C1=C\c1ccco1; 90.2
3. O=C1Nc2ccc([N+](=O)[O-])cc2/C1=C/c1ccc[nH]1; 87.9

###

Tested on: cerebellar granule neurons
assayConditions: Table 1; 5 μM in LK medium, 24 hours; percent of HK control
Below is a list of entries, each paired with its recorded % neuronal survival Mean ± SD value.
measuredProperty: % neuronal survival Mean ± SD

1. Cc1ccc(/C=C2\C(=O)Nc3ccc([N+](=O)[O-])cc32)cc1 [Compound 28]; 60.0 ± 1.87%
2. COc1cc(/C=C2\C(=O)Nc3ccccc32)cc(OC)c1OC [Compound 3]; 59.9 ± 7.98%
3. COc1cc(/C=C2\C(=O)Nc3ccc(Br)cc32)cc(OC)c1OC [Compound 18]; 59.9 ± 12.94%
